Method: yeast display, Sf9 membrane polyspecificity reagent, FACS + sequencing; frameworks hold sequencing errors
Measure: polyreactivity (PSR sort gate)

{"columns": ["Residues", "polyreactivity (PSR sort gate)"],
 "data": [
  ["QVQLVESGGGLVQAGGSIRLSCAASGSTFYSYAMGWYRQATGKERELVAAISSGGSTNYADSVKGRFTISRDNAKNTVYLQMNSLKPEDTAVYYCAVDYPVIVYQRGYWGQGTQVTVSS", "low polyreactivity"],
  ["QVQLVESGGGLVQAGGSLSLSCAASGSIFVRYAMGWSRHAPWKERELVAAISVRGGRTYYAYSVKGRFTISRDNAKNTVYLQMNRLKPEATAVYYCAAQLYYYYSYVPPGGYWGQGTQVTVSA", "high polyreactivity"],
  ["QVQLVESGGGLVQAGGSLRLSCAASGFTFFGYAMGWYRQAPGKERELVATISDTGGSTYADSVKGRFTISRDNAKNTVYLQMNSLKPEDTAVYYCNARSVFYSMDYWGQGTQVTVSS", "low polyreactivity"],
  ["QVQLVESGGGLGQAGGSLSLSCAAYGRIYSRYAMGWYRQAPGKERELVAAINSGGITNYADSVKGRFTISRDNAKNTVYLQMNSLNPEDTAVYYCAAQARRSWGKYYYWGQGTQVPVSS", "high polyreactivity"],
  ["QFQLVESGGGLVQAGGSLRLSCAASGSTFRTYAMGWYRQAPRKERELVADITWRGGSKYYADSVKGRFTISRDNAKNTVYSQMNSLKPEDPAVYYCATDRGPEVVLYDYWGQGTQVTVSS", "low polyreactivity"],
  ["QVQLVESGGGLVQAGGSLRLRCAASGHIFRQYAMGWYRQAPGKERELVAAITSGGSTYYADSVKGRFTISRDNAKNTVYLEMNSLKPEDNAVYYCADKYFFSYRHGDYWGQGNQVTVSS", "low polyreactivity"],
  ["QVQLVESGGGLVQAGGSLRLSCAASGFIFYGYAMGWYRQAPGKERELVAGISTGGSTNYADSVKGRITISRDNAKNTVYLQMNSLKPEDTAVYYCAVVDVEEHVGHWGQGTQVTVSS", "low polyreactivity"],
  ["QVQLVESGGGLVQAGGSLRLSCAASGSIFYAYALGWYRQAPGKERELVAVISRGGITNYADSVKGRFTISRDNAKNTVYLQMNSLKPEDNAVYYCAAATSACGYLRRYGYWGQGTQVTVSS", "low polyreactivity"],
  ["QVQLVESGGGLVQAGGSLRLSCAASGFIFRFYAMGWYRQAPGKERELVAGISSSGGSTYYADSVKGRFTISRDNAKNTVYLQMNSLKPEDTAVYYCNAKRSDQSSKTFNYWGQGTQVTVSS", "low polyreactivity"],
  ["QVQLVESGGGLVQAGGSLRLSCAASGRIFVSNAMGWYRQAPGKERELVAAISKSGGRTYYADSVKGRFTISRDNAKNTVYLQMNSLKPEDTAVYYCAARSRVSPRYDYWGQGTQVTVSS", "high polyreactivity"]
]}

Exercise: Request the reported polyreactivity (PSR sort gate) associated with QVQLVESGGGLVQAGGSLRLSCAASGRIFRNYAMGWYRQAPGKERELVAAISGNGGNTYYADSVKGRFTISRDNAKNTVYLQMNSLKPEDTAVYYCNAYHWLYSYRYSRTYDYWGQGTQVTVSS
Solution: high polyreactivity

Exercise: Requested read-out: polyreactivity (PSR sort gate). Entry: QVQLVESGGGLVQAGGSLRLSCAASGFTFSSNAMGWYRQAPGKERELVAVIDSGDITNYADSVKGRFTISRDYAKNTVYLQMNSLKPEDTAVYYCAADSYSYFTDDHGYWGQGTQVTVSS
Solution: high polyreactivity

Exercise: What polyreactivity (PSR sort gate) value was documented for this sequence, QVQLVESGGGLVQAGGSLRLSCAASGLIIRYYAMGWYRQARGKERELVAAISYNGGSTYYADSVKGRFTISRDNAKNTVYLQMNSLKPEDTAVYYCAARLYGRYGYWGQGTQVTVSS ?
Solution: high polyreactivity

* * *

Method: yeast display, Sf9 membrane polyspecificity reagent, FACS + sequencing; frameworks hold sequencing errors
Measure: polyreactivity (PSR sort gate)

{"columns": ["Residues", "Measure", "Assay result"],
 "data": [
  ["QVQLEESGGGLVQAGGSLRLSFAASGFTFVRNTMGWDRQAPGKERELVAAISRSGGSTYYADSVKGRFTISRDKAKNTVYLQMNSLKPEDTAVYYCNAYRYVHYDWGQGTQVTVSS", "polyreactivity (PSR sort gate)", "high polyreactivity"],
  ["QVQLVESGGGLVQAGGSLRLSCAASGRIFHYAIGWYRQAPGKESELVAGISKRGGSTYYADSVKGRFTISRDNAKNTVYLQMNSLKPEDTAVYYCSKEHYWTLNGLTSYYWGQGSQVTVSS", "polyreactivity (PSR sort gate)", "high polyreactivity"],
  ["QVQLVESGGGLVQAGGSLRLSCAASGSIFAVYAMGRYRPAPGKERELVAASSTDYADSVKGRVTISRDNAKNTVYLQMNSLKPEDTAVYYCAKVGFGIPGGFYYWGHGTQVTVSS", "polyreactivity (PSR sort gate)", "low polyreactivity"],
  ["QVQLQESGGGLVQAGGGLRLSCAASGTISGPHVMGWYRQAPGEEREFVAAINVGANTYYADNVKGRFTISRDNAKNTVYLQMNSLKPEDTAVYYCAAVYYGDIGHEYWGQGTQVTVSC", "polyreactivity (PSR sort gate)", "low polyreactivity"]
]}

Now examine the next entry.
Exercise: Item QVQLVESGGGLVQAGGSLRLSCAASGRILDRYAMGWYRQAPGKERELVAVITDRGGNTYYADSVKGRFTISRDNAKNTVYLQMNSLKPEDTAVYYCAVYAYWRFRTYYYWGQGTQVTVSS has what recorded polyreactivity (PSR sort gate)?
Solution: high polyreactivity

* * *

Method: yeast display, Sf9 membrane polyspecificity reagent, FACS + sequencing; frameworks hold sequencing errors
Measure: polyreactivity (PSR sort gate)

Known polyreactivity (PSR sort gate) results, listed for orientation:
{"columns": ["Residues", "Measure", "Assay result"],
 "data": [
  ["QVQLVESGGGLVQAGGSLRLSCAASGSIFAANAMGWYRQATGKESELVAAISWSGGSTYADSVKGRFTISRDNAKNTVYLQMNSLKPEDTAVYYCNAFVYVGTGRGYDTLDYWGQGTQVTVSS", "polyreactivity (PSR sort gate)", "low polyreactivity"],
  ["QVQLVDSGGGLVQAGGSLRLSCAASGRTFYSYAMGWYRQAPGKERELVSAISRNGGSTYYADSVKGRFTISRDNAKNSVYLQMNSLKPEDTAVYYCAAKRAGPYGISKGMDYWGQGTQVTVSS", "polyreactivity (PSR sort gate)", "high polyreactivity"],
  ["QVQLVESWGGLVQAGRSHRLSCAASGIIFDGNALGWYRQAPRKEREMVAAISSSGARTYYADSVKGRFTISRDNAKNSVYLLMNSLKPEDTAVYYCNAAYFNWYTHVWNDYWGQGTQVTVSS", "polyreactivity (PSR sort gate)", "high polyreactivity"],
  ["QVKLVESGGGLVQAGGSIRLSCAASGRIFTTYTMGWYRQAPGKERELVAAITRGDRTNYADSVKGRFTISRDNAKNTVYLQMNSLIPEDTAVYYCAAVGNWYYRDPLHSRFYYWGQGTQVTVSS", "polyreactivity (PSR sort gate)", "high polyreactivity"],
  ["QVQLVESGGGLVQAGGSLRLSCAASGRIFPAYAMGWYRQAPGKERELVAAITGGGSTNYADSVKGRFTISRDNAKHTVYLQMNSLKPEDTAVYYCNAAVVWPNRQENDYWGQGTQVTVSS", "polyreactivity (PSR sort gate)", "low polyreactivity"]
]}

API: the following record is the query input.
Exercise: Which polyreactivity (PSR sort gate) reading was recorded for the sequence QVQLVESGGGLFQAGGSLRLSCAPSGFIFPKNPMSWYRHAPGKERELVAAISQSGGSTYYADSVKGRFTISRDNAKNTVYLQMKSLKADDTAVYSCAARYYLPNWVGGGEYNYWGQGTQVTVST ?
Solution: high polyreactivity

* * *

Method: yeast display, Sf9 membrane polyspecificity reagent, FACS + sequencing; frameworks hold sequencing errors
Measure: polyreactivity (PSR sort gate)

{"columns": ["Residues", "polyreactivity (PSR sort gate)"],
 "data": [
  ["QVQLVESGGGLVQAGGSLRLSCAASGRTFAINVMGWYRQAPGKEMELVASIRGRGGRTNYADSVKGRFTISRDNAKNSVYLQMNSLKPEDTAVYYCAAAYTGGGQYEYEYWGQGTQVTVSS", "high polyreactivity"],
  ["QVQLLESGGGLVQAGGSLRLSCAASGYTFAYYAMGWYRQAPGKERELVATISWSDGSTYYADSVKGRFTISRDNAKNTVYLQMNSLKPEDTAVYYCAADTPGYYTYYGFGYWGQGTQVTVSS", "low polyreactivity"],
  ["QVQLVESGGGLVQAGGSLRLSCAASGSTFYPYAMGWYIQAPGKERELVARISSDGSTYADSVKGRFTISRDNAKNTVYLQMNSLKPEDTAVYYCNADAGTGVGWWDDYDYWGQGTQVTVSS", "low polyreactivity"],
  ["QVQLVESGGGLVQAGGSLRLSCAASGFIFSANAMGWYRQAPGKERELVAAISSRGTSTYYADSVKGRFTISRDYAKNTVYLQMNSLKPEDTGVYFCAADYYQAGTYVWMDYWGQGTQVTVSS", "high polyreactivity"]
]}

As a next step, examine the sequence that follows.
Exercise: GET /values?readout=polyreactivity (PSR sort gate)&item= QVQLVESGGGLDQAGGSLRLSCAASGYIFGSYAMGWYRQAPGKERELVAAITISGGRTYYADSVKGRFTISRDNAKNTVYLQMNSLLPEDTAVYYCAKDGERSRNGRIHYDYWGQGTKVTVSS
Solution: low polyreactivity

The origin of these recorded values is the nanobody polyreactivity screen of Harvey et al. (2022).
